experiment: Linker payload and released payload in serum and peripheral blood leukocytes (MS); type: in vivo, cynomolgus monkey; conditions: cynomolgus monkey, in vivo; INX234P 15 mg/Kg i.v.; analyte as labelled; read-out: intracellular (PBL) levels as compared to serum
attribute-measured: Kp
Answer as a number with no unit attached.

Any idea what its Kp is? The molecule is C[C@]12C=CC(=O)C=C1CC[C@@H]1[C@@H]2[C@@H](O)C[C@@]2(C)[C@H]1C[C@H]1O[C@@H](c3ccc(CC45CC(NC(=O)[C@H](CCC(=O)O)NC(=O)CNC(=O)CSC[C@H](N)C(=O)O)(C4)C5)cc3)O[C@]12C(=O)CO [P-cys]
100

====

System: human PBMC
Assay: Cytokine production (IL-1β, IL-6) at 24 hr by human PBMC incubated with 1 ng/mL LPS
Type: cell-based
Settings: free steroid payloads, serial dilutions, 1 ng/mL LPS, 24 hr
Description: FIG. 51: INX-SM-3, INX-SM-4, and INX-SM-1 inhibit IL-1β (left) and IL-6 (right) production. Cytokine levels were measured at 24 hr for human PBMCS incubated with 1 ng/mL LPS and serial dilutions (1000-1 nM) of steroid payloads, with the no treatment control plotted on the log-scale x-axis at <1 nM; n=1 donor, standard deviation plotted from technical duplicates. FIG. 52: INX-SM-1, INX-SM-3, INX-SM-4 and INX-SM-6 inhibit IL-1β production. […]

{"columns": ["smiles-repr", "assay-system", "inhibition of IL-1β production"],
 "data": [
  ["C[C@]12C=CC(=O)C=C1CC[C@@H]1[C@@H]2[C@@H](O)C[C@@]2(C)[C@H]1C[C@H]1CN(c3ccc(Cc4cccc(N)c4)cc3)C[C@]12C(=O)CO", "human PBMC", "weakly inhibit"],
  ["C[C@]12C=CC(=O)C=C1CC[C@@H]1[C@@H]2[C@@H](O)C[C@@]2(C)[C@H]1C[C@H]1CN(c3ccc(CC45CC(N)(C4)C5)cc3)C[C@]12C(=O)CO", "human PBMC", "weakly inhibit"]
]}

====

system: human PBMC; test: Cytokine production (IL-1β, IL-6) at 24 hr by human PBMC incubated with 1 ng/mL LPS; type: cell-based; details: free steroid payloads, serial dilutions, 1 ng/mL LPS, 24 hr
attribute-measured: inhibition of IL-6 production

{"columns": ["compound", "result"],
 "data": [
  ["C[C@]12C=CC(=O)C=C1CC[C@@H]1[C@@H]2[C@@H](O)C[C@@]2(C)[C@H]1C[C@H]1CN(c3ccc(Cc4cccc(N)c4)cc3)C[C@]12C(=O)CO [INX-SM-40]", "weakly inhibit"],
  ["C[C@]12C=CC(=O)C=C1CC[C@@H]1[C@@H]2[C@@H](O)C[C@@]2(C)[C@H]1C[C@H]1O[C@@H](C34CC(Cc5cccc(N)c5)(C3)C4)O[C@]12C(=O)CO [INX-SM-4]", "inhibit"],
  ["C[C@]12C=CC(=O)C=C1CC[C@@H]1[C@@H]2[C@@H](O)C[C@@]2(C)[C@H]1C[C@H]1O[C@@H](c3ccc(CC4(N)CC(F)(F)C4)cc3)O[C@]12C(=O)CO [INX-SM-35]", "inhibit"],
  ["CNC1CC(Cc2ccc([C@@H]3O[C@@H]4C[C@H]5[C@@H]6CCC7=CC(=O)C=C[C@]7(C)[C@H]6[C@@H](O)C[C@]5(C)[C@]4(C(=O)CO)O3)cc2)C1 (stereo partly shown) [INX-SM-49]", "weakly inhibit"],
  ["C[C@]12C=CC(=O)C=C1CC[C@@H]1[C@@H]2[C@@H](O)C[C@@]2(C)[C@H]1C[C@H]1O[C@@H](c3ccc(CC4CC5(CNC5)C4)cc3)O[C@]12C(=O)CO [INX-SM-47]", "weakly inhibit"]
]}

Any idea what its inhibition of IL-6 production is? The compound is C[C@]12C=CC(=O)C=C1CC[C@@H]1[C@@H]2[C@@H](O)C[C@@]2(C)[C@H]1C[C@H]1O[C@@H](c3ccc(CC4COC5(CNC5)C4)cc3)O[C@]12C(=O)CO (stereo partly shown) [INX-SM-31]
inhibit

Any idea what its inhibition of IL-6 production is? The compound is C[C@]12C=CC(=O)C=C1CC[C@@H]1[C@@H]2[C@@H](O)C[C@@]2(C)[C@H]1C[C@H]1O[C@@H](c3ccc(Cc4cnc(N)s4)cc3)O[C@]12C(=O)CO [INX-SM-1]
inhibit

Any idea what its inhibition of IL-6 production is? The compound is C[C@]12C=CC(=O)C=C1CC[C@@H]1[C@@H]2[C@@H](O)C[C@@]2(C)[C@H]1C[C@H]1O[C@@H](c3ccc(CC45C6C7C4C4C5C6C74N)cc3)O[C@]12C(=O)CO (stereo partly shown) [INX-SM-9]
inhibit

Any idea what its inhibition of IL-6 production is? The compound is C[C@]12C=CC(=O)C=C1CC[C@@H]1[C@@H]2[C@@H](O)C[C@@]2(C)[C@H]1C[C@H]1CN(c3ccc(CC45CC(N)(C4)C5)cc3)C[C@]12C(=O)CO [INX-SM-34]
weakly inhibit

Any idea what its inhibition of IL-6 production is? The compound is C[C@]12C=CC(=O)C=C1CC[C@@H]1[C@@H]2[C@@H](O)C[C@@]2(C)[C@H]1C[C@H]1O[C@@H](c3ccc(CC45CC(N)(C4)C5)cc3)O[C@]12C(=O)CO [INX-SM-3]
inhibit

====

tested on: human PBMC; assay: Cytokine production (IL-1β, IL-6) at 24 hr by human PBMC incubated with 1 ng/mL LPS; format: cell-based; settings: free steroid payloads, serial dilutions, 1 ng/mL LPS, 24 hr

{"columns": ["molecule", "inhibition of IL-1β production"],
 "data": [
  ["C[C@]12C=CC(=O)C=C1CC[C@@H]1[C@@H]2[C@@H](O)C[C@@]2(C)[C@H]1C[C@H]1O[C@@H](C34CC(Cc5cccc(N)c5)(C3)C4)O[C@]12C(=O)CO [INX-SM-4]", "inhibit"],
  ["C[C@]12C=CC(=O)C=C1CC[C@@H]1[C@@H]2[C@@H](O)C[C@@]2(C)[C@H]1C[C@H]1O[C@@H](c3cnc(Cc4cccc(N)c4)s3)O[C@]12C(=O)CO [INX-SM-6]", "inhibit"]
]}

====

system: human PBMC; test: Cytokine production (IL-1β, IL-6) at 24 hr by human PBMC incubated with 1 ng/mL LPS; type: cell-based; details: free steroid payloads, serial dilutions, 1 ng/mL LPS, 24 hr
attribute-measured: inhibition of IL-1β production

{"columns": ["compound", "result"],
 "data": [
  ["C[C@]12C=CC(=O)C=C1CC[C@@H]1[C@@H]2[C@@H](O)C[C@@]2(C)[C@H]1C[C@H]1O[C@@H](c3ccc(Cc4cnc(N)s4)cc3)O[C@]12C(=O)CO [INX-SM-1]", "inhibit"],
  ["C[C@]12C=CC(=O)C=C1CC[C@@H]1[C@@H]2[C@@H](O)C[C@@]2(C)[C@H]1C[C@H]1O[C@@H](c3ccc(CC45C6C7C4C4C5C6C74N)cc3)O[C@]12C(=O)CO (stereo partly drawn) [INX-SM-9]", "inhibit"]
]}

====

system: human PBMC; test: Cytokine production (IL-1β, IL-6) at 24 hr by human PBMC incubated with 1 ng/mL LPS; type: cell-based; conditions: free steroid payloads, serial dilutions, 1 ng/mL LPS, 24 hr

{"columns": ["molecule", "assay-system", "inhibition of IL-1β production"],
 "data": [
  ["C[C@]12C=CC(=O)C=C1CC[C@@H]1[C@@H]2[C@@H](O)C[C@@]2(C)[C@H]1C[C@H]1O[C@@H](c3ccc(CC4COC5(CNC5)C4)cc3)O[C@]12C(=O)CO (stereo partly drawn)", "human PBMC", "inhibit"],
  ["C[C@]12C=CC(=O)C=C1CC[C@@H]1[C@@H]2[C@@H](O)C[C@@]2(C)[C@H]1C[C@H]1O[C@@H](c3ccc(CC4(N)CC(F)(F)C4)cc3)O[C@]12C(=O)CO", "human PBMC", "inhibit"]
]}
